Readings of MC3R cAMP (EC50) for the listed binders
target: human MC3R (human, UniProt P41968 1-323); test: cell-based or functional assay
Sequence (P41968 whole entry): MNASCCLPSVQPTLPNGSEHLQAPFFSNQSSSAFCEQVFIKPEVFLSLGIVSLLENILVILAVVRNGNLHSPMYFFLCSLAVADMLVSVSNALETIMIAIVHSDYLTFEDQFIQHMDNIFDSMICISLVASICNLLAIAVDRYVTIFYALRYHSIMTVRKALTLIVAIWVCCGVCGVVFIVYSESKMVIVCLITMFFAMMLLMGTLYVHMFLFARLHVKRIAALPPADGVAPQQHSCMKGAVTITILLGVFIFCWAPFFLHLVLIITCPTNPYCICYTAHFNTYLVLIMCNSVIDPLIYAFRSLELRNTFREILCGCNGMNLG
Non-standard residues stand in square brackets, D forms with d. Phe(4-I) = N[C@@H](Cc1ccc(I)cc1)C(=O)O; NMeA = CN[C@@H](C)C(=O)O; Nle = CCCC[C@H](N)C(=O)O

binder	MC3R cAMP (EC50) [nM]
Ac-[Nle][dA]HFR[dW]DRPG-OH (SMILES CCCC[C@H](NC(C)=O)C(=O)N[C@H](C)C(=O)N[C@@H](Cc1c[nH]cn1)C(=O)N[C@@H](Cc1ccccc1)C(=O)N[C@@H](CCCNC(=N)N)C(=O)N[C@H](Cc1c[nH]c2ccccc12)C(=O)N[C@@H](CC(=O)O)C(=O)N[C@@H](CCCNC(=N)N)C(=O)N1CCC[C@H]1C(=O)NCC(=O)O) [CTX-1536]	73
Ac-[Nle][dA]H[Phe(4-I)]R[dW]G-NH2 (SMILES CCCC[C@H](NC(C)=O)C(=O)N[C@H](C)C(=O)N[C@@H](Cc1c[nH]cn1)C(=O)N[C@@H](Cc1ccc(I)cc1)C(=O)N[C@@H](CCCNC(=N)N)C(=O)N[C@H](Cc1c[nH]c2ccccc12)C(=O)NCC(N)=O) [CTX-1543]	3.1
Ac-[Nle][dA][NMeA]FR[dW]DRFG-OH (SMILES CCCC[C@H](NC(C)=O)C(=O)N[C@H](C)C(=O)N(C)[C@@H](C)C(=O)N[C@@H](Cc1ccccc1)C(=O)N[C@@H](CCCNC(=N)N)C(=O)N[C@H](Cc1c[nH]c2ccccc12)C(=O)N[C@@H](CC(=O)O)C(=O)N[C@@H](CCCNC(=N)N)C(=O)N[C@@H](Cc1ccccc1)C(=O)NCC(=O)O) [CTX-1190]	3920
